- Test system: Prevotella intermedia
- TEST: Antimicrobial activity against Prevotella intermedia after 48 hrs by agar dilution method
- Type: functional
ASSAY READOUT: MIC90

Please list MIC90 recorded for the molecule C[C@@H](O)[C@H]1C(=O)N2C(C(=O)O)=C(SCCNC=N)C[C@H]12 [IMIPENEM ANHYDROUS] 0.06 µg/mL

Please list MIC90 recorded for the molecule CO[C@@]1(NC(=O)C2SC(=C(C(N)=O)C(=O)O)S2)C(=O)N2C(C(=O)O)=C(CSc3nnnn3C)CS[C@@H]21 (stereo partly specified) [CEFOTETAN] 16 µg/mL

Please list MIC90 recorded for the molecule CCC[C@@H]1C[C@@H](C(=O)N[C@@H]([C@H]2O[C@H](SC)[C@H](O)[C@@H](O)[C@H]2O)[C@H](C)Cl)N(C)C1 [CLINDAMYCIN] ≤ 0.06 µg/mL

Please list MIC90 recorded for the molecule C[C@@H](O)[C@H]1C(=O)N2C(C(=O)O)=C(S[C@@H]3CN[C@H](C(=O)N(C)C)C3)[C@H](C)[C@H]12 [MEROPENEM] 0.06 µg/mL

Please list MIC90 recorded for the molecule COc1c(N2C[C@@H]3CCCN[C@@H]3C2)c(F)cc2c(=O)c(C(=O)O)cn(C3CC3)c12 [MOXIFLOXACIN] 0.5 µg/mL

Please list MIC90 recorded for the molecule CCN1CCN(C(=O)N[C@@H](C(=O)N[C@@H]2C(=O)N3[C@@H]2SC(C)(C)[C@@H]3C(=O)O)c2ccccc2)C(=O)C1=O [PIPERACILLIN] 16 µg/mL

* * *

- Tested on: Bifidobacterium adolescentis
- TEST: Antimicrobial activity against Bifidobacterium adolescentis after 48 hrs by agar dilution method
- Assay type: functional
For each entry below, report its MIC50 value.

Please list MIC50 recorded for the molecule CO[C@@]1(NC(=O)C2SC(=C(C(N)=O)C(=O)O)S2)C(=O)N2C(C(=O)O)=C(CSc3nnnn3C)CS[C@@H]21 (stereo not given in full) 4 µg/mL

Please list MIC50 recorded for the molecule C[C@@H](O)[C@H]1C(=O)N2C(C(=O)O)=C(S[C@@H]3CN[C@H](C(=O)N(C)C)C3)[C@H](C)[C@H]12 0.125 µg/mL

Please list MIC50 recorded for the molecule C[C@@H](O)[C@H]1C(=O)N2C(C(=O)O)=C(SCCNC=N)C[C@H]12 [IMIPENEM ANHYDROUS] 0.06 µg/mL

Please list MIC50 recorded for the molecule CO[C@@]1(NC(=O)Cc2cccs2)C(=O)N2C(C(=O)O)=C(COC(N)=O)CS[C@@H]21 2 µg/mL

Please list MIC50 recorded for the molecule CCC[C@@H]1C[C@@H](C(=O)N[C@@H]([C@H]2O[C@H](SC)[C@H](O)[C@@H](O)[C@H]2O)[C@H](C)Cl)N(C)C1 0.06 µg/mL

* * *

For each entry below, report its MIC50 value.
- System: Eggerthella lenta
- TEST: Antimicrobial activity against Eubacterium lentum after 48 hrs by agar dilution method
- Assay type: functional
Record the value in µg/mL, omitting the unit from your answer.

Please list MIC50 recorded for the compound CCN1CCN(C(=O)N[C@@H](C(=O)N[C@@H]2C(=O)N3[C@@H]2SC(C)(C)[C@@H]3C(=O)O)c2ccccc2)C(=O)C1=O 1

Please list MIC50 recorded for the compound COc1c(N2C[C@@H]3CCCN[C@@H]3C2)c(F)cc2c(=O)c(C(=O)O)cn(C3CC3)c12 1

Please list MIC50 recorded for the compound Cc1ncc([N+](=O)[O-])n1CCO 16

Please list MIC50 recorded for the compound C[C@@H](O)[C@H]1C(=O)N2C(C(=O)O)=C(S[C@@H]3CN[C@H](C(=O)N(C)C)C3)[C@H](C)[C@H]12 0.125

Please list MIC50 recorded for the compound O=C(N[C@H](CO)[C@H](O)c1ccc([N+](=O)[O-])cc1)C(Cl)Cl 1
